tested on: SK-MEL-5; assay: NCI tumour cell line growth inhibition, 48 h
Active and inactive are the calls of the source. No stated cut-off is given here; in the data, active = GI50 up to about 1.1 µM and inactive = higher.
experimentalEndpoint: GI50

Query :: Would you kindly share the measured GI50 for COC(=O)C(=O)C(C(=O)C=C(C)C)C(=O)C(=O)Nc1cccc(C(C)=O)c1 (stereo unspecified) ?
Result :: > 100 µM (inactive)

Query :: Now this one: COc1ccc(Cc2nc3cc([N+](=O)[O-])ccc3n2C[C@@H]2CCCN3CCCCC23)cc1 (stereo partly specified)
Result :: 14.8 µM (inactive)

Query :: Now this one: N#Cc1c(-c2ccc([N+](=O)[O-])cc2)c2c([nH]c1=O)-c1ccccc1CCC2
Result :: 51.9 µM (inactive)

Query :: Now this one: COC(=O)C1CCCN1C(=O)C(Cc1cn(S(=O)(=O)c2ccc(C)cc2)cn1)NC(=O)OC(C)(C)C (stereo unspecified)
Result :: > 100 µM (inactive)

Query :: Now this one: O=C1c2ccccc2C2C1C(c1ccccc1)C1(Cc3ccccc3C1=O)C2c1ccccc1 (stereo unspecified)
Result :: > 55.8 µM (inactive)

Query :: Now this one: Cc1ccc(-c2n[nH]c(=O)n2NC(=O)c2ccccc2C(=O)O)cc1
Result :: > 100 µM (inactive)

Attribution: ChEMBL document CHEMBL1201862
